Assignment: determine reported composite z-score for the given molecules.
Tested on: Plasmodium falciparum Sir2 (PF13_0152, Sir2A)
run description: pfSir2 binders on small-molecule microarrays, primary screen, biochemical, small-molecule microarray, 635 nm fluorescence (AID 1098);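 also: score merges spot fluorescence intensity with its signal-to-noise ratio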
measurement context: small-molecule microarray binding, fluorescence 635 nm; higher = more signal

Take a look at these entries with their results.
CCOC(=O)C1=CC[C@@H](c2cc(Cl)ccc2Cl)N(S(=O)(=O)c2ccc(C)cc2)[C@H]1c1ccc(OC)cc1 : 0.391
COc1cc(CO)cc(I)c1O[C@H]1C=C(C(=O)NCCO)C[C@@H](N(Cc2ccc(F)cc2)C(=O)C2CCCO2)[C@@H]1O (stereo partly drawn) : 0.0885

--- query ---
-- ask Which value of composite z-score has been reported for CC(C)(C)OC(=O)CC[C@]1(C(=O)O)N=C(c2ccc(OCCCO)cc2)O[C@H]1c1ccccc1CN=[N+]=[N-] in the records?
-- reply 0.814

====

run description: small-molecule microarray binders of probe aCHRDL2, primary screen, biochemical, biotinylated probe, 635/667 nm fluorescence (AID 1100)
measurement context: higher = more signal
readout: composite z-score

C=CC[C@@H](OC(=O)Nc1ccc(OC)cc1)c1ccc(OCCO)cc1 : 0.979

Give composite z-score for each of the items listed below.
1. CCOC(=O)[C@@H]1[C@@H]2C(=O)N(CC)C(=O)[C@@H]2C[C@@H]1Sc1ccccc1
2. Cc1ccc(S[C@]2(C(=O)NC(C)C)CC(=O)N(Cc3ccccc3C(F)(F)F)[C@@H]2c2ccc(CO)cc2I)cc1
3. CC(C)(C)OC(=O)CC[C@]1(C(=O)N2CCOCC2)N=C(c2ccc(OCCCO)cc2)O[C@H]1c1ccccc1
4. CN(C)CCCNC(=O)[C@@]1(C)c2ccccc2C(=O)N(Cc2cc(C(F)(F)F)cc(C(F)(F)F)c2)[C@H]1c1ccc(CO)cc1
5. C=C(COC)/C(=C/C[C@@H](OC(=O)c1ccncc1)c1cccc(OCCO)c1)c1cnc2ccccc2c1
6. [N-]=[N+]=NCc1ccccc1C[C@]1(C(=O)NCC(O)CO)N=C(c2ccc(OCCCO)cc2)O[C@H]1c1ccccc1CN=[N+]=[N-] (stereo not given in full)
7. COc1c(C)cc(-c2cc3c(c(Cc4ccccc4)n2)[Si](C(C)C)(C(C)C)OC3)cc1C
8. C=CCN1C(=O)[C@@]2(O[C@@H](CCO)[C@H]([Si](C)(C)c3ccc(OC)cc3)[C@H]2C)c2cc(N3C(=O)c4ccccc4Oc4ccccc43)ccc21

-- reply
1. 0.0774
2. 1.09
3. 0.417
4. 0.0634
5. 0.347
6. 0.953
7. -0.313
8. 0.0272

-- ask I would be grateful if you could share the reported composite z-score for O=c1cccc(-c2ccc(C(F)(F)F)cc2)o1 .
-- reply 0.239

====

run description: basal MM1S mitochondrial membrane potential changes, profiling panel, cell-based, JC-1 fluorescence, 24 h, 100 nL compound (AID 1170); also: test concentration not given here
measurement context: higher = more signal
Would you mind telling me the reported z-score of each entry?
One number for each entry.

Worked cases, answers included:
COC(=O)[C@@]1(Cc2ccccc2)[C@H]2c3cc(C(=O)N4CCCC4)[nH]c3C[C@H]2CN1C(=O)c1ccccc1 : -0.28
O=C1O[C@@H](c2ccccc2)[C@@H](c2ccccc2)N2[C@@H](c3ccccc3OCCO)[C@]3(C(=O)Nc4ccc(C#CCCO)cc43)[C@@H](C(=O)Nc3nc4ccccc4s3)[C@H]12 : -1.33
COC(=O)C1(Cc2ccccc2)C=C2C(=C(c3ccccc3)C(=O)C2C)CN1 (stereo not drawn) : -0.291

Count: 6. Required value per item: z-score.
1. O=C(O)[C@]1(Cc2ccccc2)N=C(c2ccc(OCCCO)cc2)O[C@@H]1c1ccccc1
2. CCC[C@@H]1C[C@@]1(CCC)[C@@H](NP(=O)(c1ccccc1)c1ccccc1)c1ccc(Cl)cc1
3. COc1ccc(C#Cc2ccc3c(c2)[C@]2(C(=O)N3)[C@H](C(=O)N3CCc4cc(OC)c(OC)cc4C3)[C@H]3C(=O)O[C@H](c4ccccc4)[C@H](c4ccccc4)N3[C@@H]2c2ccc(O)cc2)cc1
4. CCOc1cc(C(O)C2C=CC3C(=O)N(C4CCCCC4)C(=O)C3N2Nc2ccc(OC)cc2)ccc1O (stereo not drawn)
5. COC1(C)CN(Cc2ccccc2Br)[C@H](/C=C/c2ccccc2)[C@H](Cc2ccccc2)O1 (stereo partly drawn)
6. Cc1ccc(C(C)CC(O)C2C=CC3C(=O)N(c4ccccc4)C(=O)C3N2Nc2ccc(C(C)C)cc2)o1 (stereo not drawn)

-- reply
1: -0.38; 2: -1.81; 3: -1.09; 4: -1.87; 5: -0.861; 6: 0.772

Please report z-score for every entry that follows.
1. COC(=O)[C@]1(CCS(=O)(=O)c2ccccc2)N=C(c2ccc(OCCCO)cc2)O[C@@H]1c1ccccc1CN=[N+]=[N-]
2. COc1ccc([Si](C)(C)[C@H]2[C@H](CC(=O)N3Cc4ccccc4C[C@H]3CO)O[C@@]3(C(=O)N(Cc4cccc(N5CCCCC5=O)c4)c4ccccc43)[C@@H]2C)cc1
3. COCCCNC(=O)[C@@H]1c2ccccc2C(=O)N(Cc2ccccc2C(F)(F)F)[C@H]1c1ccc(CO)cc1
4. CC(C)(C)OC(=O)CC[C@]1(C(=O)NCCN2CCOCC2)N=C(c2ccc(OCCCO)cc2)O[C@H]1c1ccccc1

-- reply
1: -1.88; 2: -1.46; 3: 0.872; 4: -0.158
